The reported numbers originate from ChEMBL document CHEMBL4052830.

Target: Neuronal acetylcholine receptor; alpha4/beta4 (Rattus norvegicus, UniProt P09483+P12392)
Sequence (P09483 whole entry): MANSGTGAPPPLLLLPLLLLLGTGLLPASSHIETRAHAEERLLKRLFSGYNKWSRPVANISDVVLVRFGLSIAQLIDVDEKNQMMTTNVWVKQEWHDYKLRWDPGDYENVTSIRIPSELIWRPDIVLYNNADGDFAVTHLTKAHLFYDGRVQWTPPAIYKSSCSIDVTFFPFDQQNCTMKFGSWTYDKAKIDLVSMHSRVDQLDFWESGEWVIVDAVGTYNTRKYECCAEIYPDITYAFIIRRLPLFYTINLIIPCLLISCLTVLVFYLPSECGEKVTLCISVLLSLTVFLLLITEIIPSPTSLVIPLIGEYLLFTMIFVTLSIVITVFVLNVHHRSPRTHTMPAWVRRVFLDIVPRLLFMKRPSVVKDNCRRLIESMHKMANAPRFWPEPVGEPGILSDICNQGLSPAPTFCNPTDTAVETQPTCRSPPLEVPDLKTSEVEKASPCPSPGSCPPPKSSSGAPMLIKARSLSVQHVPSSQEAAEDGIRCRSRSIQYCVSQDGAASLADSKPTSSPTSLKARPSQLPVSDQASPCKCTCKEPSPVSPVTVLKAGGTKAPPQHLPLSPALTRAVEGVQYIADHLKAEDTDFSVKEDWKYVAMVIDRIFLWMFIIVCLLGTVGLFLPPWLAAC
Sequence (P12392 whole entry): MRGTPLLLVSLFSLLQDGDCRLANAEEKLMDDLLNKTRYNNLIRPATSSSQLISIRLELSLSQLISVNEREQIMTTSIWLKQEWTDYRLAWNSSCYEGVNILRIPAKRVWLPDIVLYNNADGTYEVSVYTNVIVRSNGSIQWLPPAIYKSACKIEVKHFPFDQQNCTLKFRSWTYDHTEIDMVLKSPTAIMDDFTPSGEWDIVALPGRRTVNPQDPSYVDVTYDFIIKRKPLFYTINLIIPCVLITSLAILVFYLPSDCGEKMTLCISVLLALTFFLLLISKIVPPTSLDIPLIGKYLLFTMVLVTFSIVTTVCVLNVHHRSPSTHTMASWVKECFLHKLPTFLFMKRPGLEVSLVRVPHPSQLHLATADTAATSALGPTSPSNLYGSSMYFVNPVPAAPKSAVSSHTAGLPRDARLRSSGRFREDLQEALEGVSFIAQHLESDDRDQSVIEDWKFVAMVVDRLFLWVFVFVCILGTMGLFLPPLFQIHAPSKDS
Experiment: Displacement of [3H]epibatidine from rat alpha4beta4 nAChR expressed in HEK293 cell membranes after 4 hrs by scintillation counting method
pKi: −log10 of the molar value.
Outcome: t for pKi of at least 5; f for anything lower.

{"compound": "COc1cc2c(cc1OC)[C@@H]1CCCN1CC2", "group": "f"}
{"compound": "c1c2c(cc3c1OCO3)[C@@H]1CCCN1CC2", "group": "f"}
{"compound": "C[N+]12CCC[C@@H]1c1cc3c(cc1CC2)OCO3 (stereo not given in full)", "group": "t"}
{"compound": "CC[N+]1(C)CCc2cc(OC)c(OC)cc2C1 (stereo not given)", "group": "f"}
{"compound": "COc1cc2c(cc1OC)[C@H]1CCCN1CC2", "group": "f"}
{"compound": "COC1CC=C2CCN3CCC4=C(CC(=O)OC4)[C@]23C1 (stereo not given in full)", "group": "f"}
{"compound": "C[N+]12CCCC1c1cc3c(cc1CC2)OCO3 (stereo not given)", "group": "f"}
{"compound": "COc1cc2c(cc1OC)[C@H]1CCC[N+]1(C)CC2 (stereo not given in full)", "group": "f"}
{"compound": "COc1cc2c(cc1OCc1ccccc1)C[N+](C)(C)CC2", "group": "f"}
{"compound": "COc1cc2c(cc1OCc1ccccc1)CCN1CCCC21 (stereo not given)", "group": "f"}
{"compound": "COc1cc2c(cc1OCc1ccccc1)C1CCC[N+]1(C)CC2 (stereo not given)", "group": "f"}
{"compound": "c1c2c(cc3c1OCO3)[C@H]1CCCN1CC2", "group": "t"}
{"compound": "COc1ccc2c(c1)C1CCCN1CC2 (stereo not given)", "group": "t"}
{"compound": "COc1ccc(CC2c3cc(OC)c(OC)cc3CC[N+]2(C)C)cc1OC (stereo not given)", "group": "f"}
{"compound": "C=CC[N+]1(C)CCc2cc(OC)c(OC)cc2C1 (stereo not given)", "group": "f"}
{"compound": "COc1cc2c(cc1OC)C[N+](C)(Cc1ccccc1)CC2 (stereo not given)", "group": "f"}
{"compound": "COc1cc2c(cc1OCc1ccccc1)CCN(C)C2", "group": "f"}
{"compound": "C[N+]1(C)CCc2cc3c(cc2C1)OCO3", "group": "f"}
{"compound": "COc1ccc2c(c1)CCN1CCCC21 (stereo not given)", "group": "f"}
{"compound": "COc1ccc2c(c1)C1CCC[N+]1(C)CC2 (stereo not given)", "group": "t"}
{"compound": "COc1cc2c(cc1OCc1ccccc1)CN(C)CC2", "group": "f"}
{"compound": "C[N+]12CCCC1c1ccccc1CC2 (stereo not given)", "group": "f"}
